Item-by-item account of pIC50
Assayed target: Serine/threonine-protein kinase B-raf (Homo sapiens, UniProt P15056, V600E)
Sequence (P15056 2-766 V600E limits assumed): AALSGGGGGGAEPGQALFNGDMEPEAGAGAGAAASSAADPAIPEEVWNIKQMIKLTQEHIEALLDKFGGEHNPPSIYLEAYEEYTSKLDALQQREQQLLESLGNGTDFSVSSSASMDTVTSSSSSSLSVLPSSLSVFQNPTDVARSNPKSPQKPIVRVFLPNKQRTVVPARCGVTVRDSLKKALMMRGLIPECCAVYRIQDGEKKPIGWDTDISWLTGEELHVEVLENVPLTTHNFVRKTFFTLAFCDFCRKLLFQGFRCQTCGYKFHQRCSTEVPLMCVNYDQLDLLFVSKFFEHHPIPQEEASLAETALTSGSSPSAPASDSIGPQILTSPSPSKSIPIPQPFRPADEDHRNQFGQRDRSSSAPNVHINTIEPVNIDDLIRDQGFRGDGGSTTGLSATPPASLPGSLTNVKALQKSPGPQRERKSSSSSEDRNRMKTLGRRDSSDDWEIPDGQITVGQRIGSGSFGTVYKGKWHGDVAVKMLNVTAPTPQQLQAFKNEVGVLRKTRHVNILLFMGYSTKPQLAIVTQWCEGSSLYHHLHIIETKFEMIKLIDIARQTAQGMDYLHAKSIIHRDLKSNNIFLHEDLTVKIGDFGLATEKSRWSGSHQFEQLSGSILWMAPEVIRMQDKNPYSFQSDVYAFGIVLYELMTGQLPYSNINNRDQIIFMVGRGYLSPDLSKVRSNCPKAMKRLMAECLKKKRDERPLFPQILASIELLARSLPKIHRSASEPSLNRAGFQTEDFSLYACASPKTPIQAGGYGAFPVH
Test protocol: Inhibition of human 6x-His tagged BRAF V600E mutant expressed in Sf9 cells by ELISA based kinase assay
pIC50 field: float, defined as -log10 of concentration (mol/L).

Field: example entries. Status: answers known.
Oc1c(C(Nc2cccnc2)c2ccsc2)ccc2cccnc12 (stereo unspecified)
6.10
Cc1cc(C)c2c(=O)n(C(=O)c3cccs3)sc2n1
6.22
O=C1C(Sc2ncn[nH]2)=C/C(=N\S(=O)(=O)c2cccs2)c2ccccc21
6.72

[in] Find the recorded pIC50 belonging to O=S(=O)(Nc1ccc(O)c2ccccc12)c1cccs1 and report it.
[out] 5.21

[in] Please give the measured pIC50 for this compound: O=C(/C=C/S(=O)(=O)c1ccc(Cl)cc1)c1ccc(F)cc1
[out] 6.52

[in] Can you look up the measured pIC50 of O=S(=O)(Nc1cc(Sc2nc[nH]n2)c(O)c2ccccc12)c1ccc2ccccc2c1 for me?
[out] 6.82
